Data provenance is the supplement of paper PMC8728848.

# Target Or System: GlcNAc(b1-3)Gal(b1-4)GlcNAc(b1-3)Gal(b1-4)GlcNAc(b1-2)Man(a1-3)[GlcNAc(b1-3)Gal(b1-4)GlcNAc(b1-3)Gal(b1-4)GlcNAc(b1-2)Man(a1-6)]Man(b1-4)GlcNAc(b1-4)GlcNAc
# Assay Comment: glycan array binding signal (z-score within array); higher = stronger binding
# Test Settings: glycan notation: IUPAC condensed, linker removed
About 410 targets per protein were measured; listed, in parts, are those with the strongest signals and a random draw of the rest.
glycan array binding signal (z-score) listing for selected binders.
Recorded Endpoint: glycan array binding signal (z-score)

binder="SAOUHSC 02783 (Staphylococcus aureus), Q5HD69 (protein) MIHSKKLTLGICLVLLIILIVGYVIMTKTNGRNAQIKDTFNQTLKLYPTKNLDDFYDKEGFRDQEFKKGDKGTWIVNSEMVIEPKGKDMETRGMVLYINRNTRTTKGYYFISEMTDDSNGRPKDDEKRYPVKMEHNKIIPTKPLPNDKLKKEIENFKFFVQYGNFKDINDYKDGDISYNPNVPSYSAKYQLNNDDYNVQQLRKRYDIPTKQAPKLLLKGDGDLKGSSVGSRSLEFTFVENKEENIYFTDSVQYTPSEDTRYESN" measured=2.6
binder="HA-11100 (Pseudomonas aeruginosa), Q02G51_PSEAB (protein) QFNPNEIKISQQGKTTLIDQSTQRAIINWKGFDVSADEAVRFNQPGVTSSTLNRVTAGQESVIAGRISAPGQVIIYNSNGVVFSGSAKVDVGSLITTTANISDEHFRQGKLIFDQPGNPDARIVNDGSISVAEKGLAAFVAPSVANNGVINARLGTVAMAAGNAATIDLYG" measured=3.34
binder="LecB PA14 (Pseudomonas aeruginosa) (protein) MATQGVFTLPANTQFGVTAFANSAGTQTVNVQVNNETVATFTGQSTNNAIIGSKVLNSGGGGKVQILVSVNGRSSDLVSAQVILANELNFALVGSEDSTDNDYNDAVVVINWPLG" measured=0.43
binder="Aap lectin (Staphylococcus epidermidis) (protein) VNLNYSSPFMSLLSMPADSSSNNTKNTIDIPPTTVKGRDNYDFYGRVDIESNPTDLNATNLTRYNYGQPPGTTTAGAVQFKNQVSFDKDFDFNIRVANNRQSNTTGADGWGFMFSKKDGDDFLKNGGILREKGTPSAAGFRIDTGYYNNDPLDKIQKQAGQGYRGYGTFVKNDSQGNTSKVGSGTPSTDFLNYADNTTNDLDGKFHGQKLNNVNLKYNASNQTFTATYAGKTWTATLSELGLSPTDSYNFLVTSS" measured=3.83
binder="HA-00510 (Pseudomonas aeruginosa), Q02V39_PSEAB (protein) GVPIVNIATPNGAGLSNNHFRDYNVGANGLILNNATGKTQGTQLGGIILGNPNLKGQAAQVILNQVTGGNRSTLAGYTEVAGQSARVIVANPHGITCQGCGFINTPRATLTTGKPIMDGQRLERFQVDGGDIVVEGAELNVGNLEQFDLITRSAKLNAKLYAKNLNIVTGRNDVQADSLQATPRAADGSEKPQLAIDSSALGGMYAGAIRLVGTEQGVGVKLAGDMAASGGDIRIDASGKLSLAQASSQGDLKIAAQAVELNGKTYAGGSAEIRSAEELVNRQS" measured=4.3
binder="BabA (Helicobacter pylori), O52269_HELPY (protein) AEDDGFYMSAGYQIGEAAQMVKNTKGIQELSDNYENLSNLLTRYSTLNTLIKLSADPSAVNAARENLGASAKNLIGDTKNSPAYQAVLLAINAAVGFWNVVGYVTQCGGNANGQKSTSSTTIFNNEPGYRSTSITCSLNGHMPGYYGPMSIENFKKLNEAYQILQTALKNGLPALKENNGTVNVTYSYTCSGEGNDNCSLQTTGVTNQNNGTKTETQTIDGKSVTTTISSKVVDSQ" measured=4.69
binder="Pbx1CASH domain (Cryptococcus neoformans) (protein) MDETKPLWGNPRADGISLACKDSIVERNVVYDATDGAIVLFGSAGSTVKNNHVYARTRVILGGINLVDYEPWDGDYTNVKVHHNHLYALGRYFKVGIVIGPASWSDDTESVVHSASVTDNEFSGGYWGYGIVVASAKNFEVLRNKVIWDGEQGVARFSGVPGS" measured=4.67
binder="FliC (Clostridium difficile) (protein) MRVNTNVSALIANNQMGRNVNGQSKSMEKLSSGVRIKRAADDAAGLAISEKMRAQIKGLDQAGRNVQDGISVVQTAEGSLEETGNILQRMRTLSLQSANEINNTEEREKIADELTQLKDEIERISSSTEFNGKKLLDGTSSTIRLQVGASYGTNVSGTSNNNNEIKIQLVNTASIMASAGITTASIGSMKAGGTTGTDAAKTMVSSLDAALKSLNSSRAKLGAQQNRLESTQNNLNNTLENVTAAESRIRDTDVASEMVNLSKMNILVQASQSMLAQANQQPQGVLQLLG" measured=0.372
binder="Pwp6 (Candida glabrata) (protein) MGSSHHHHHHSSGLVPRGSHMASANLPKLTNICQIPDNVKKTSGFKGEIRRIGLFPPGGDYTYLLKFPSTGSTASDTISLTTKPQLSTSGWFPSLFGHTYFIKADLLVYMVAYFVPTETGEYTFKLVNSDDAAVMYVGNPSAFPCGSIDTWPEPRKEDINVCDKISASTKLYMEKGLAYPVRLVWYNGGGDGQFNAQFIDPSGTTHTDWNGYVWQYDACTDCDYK" measured=3.63
binder="F17-L (Escherichia coli) (protein) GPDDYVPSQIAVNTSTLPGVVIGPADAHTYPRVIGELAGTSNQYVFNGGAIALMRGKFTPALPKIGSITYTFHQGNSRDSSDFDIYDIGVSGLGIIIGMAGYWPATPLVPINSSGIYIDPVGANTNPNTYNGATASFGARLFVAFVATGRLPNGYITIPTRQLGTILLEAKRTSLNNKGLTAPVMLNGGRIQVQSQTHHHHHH" measured=0.024
binder="Als3-41 (Candida albicans) (protein) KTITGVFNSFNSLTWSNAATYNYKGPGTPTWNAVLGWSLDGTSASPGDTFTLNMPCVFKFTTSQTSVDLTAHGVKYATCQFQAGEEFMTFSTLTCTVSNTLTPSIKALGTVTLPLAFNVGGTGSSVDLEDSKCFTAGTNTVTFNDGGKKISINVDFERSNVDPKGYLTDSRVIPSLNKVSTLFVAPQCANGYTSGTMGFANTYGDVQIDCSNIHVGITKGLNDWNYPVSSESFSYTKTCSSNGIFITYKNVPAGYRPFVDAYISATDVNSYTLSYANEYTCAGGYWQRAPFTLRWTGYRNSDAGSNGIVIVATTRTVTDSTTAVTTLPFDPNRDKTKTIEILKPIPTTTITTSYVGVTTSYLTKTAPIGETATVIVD" measured=2.21
